Every entry's value here was drawn from ChEMBL document CHEMBL1201862.

# Test system: 786-0
# measurement description: NCI tumour cell line growth inhibition, 48 h
Activity calls are given as the source filed them. Cut-off read from the data, not from the text of the source: active = GI50 up to about 1.1 µM and inactive = higher.
readout kind: GI50

| molecule | result |
| --- | --- |
| Cc1c2ccccc2c(C)n2c1nc1cc3ccccc3cc12 | 0.955 µM (active) |
| CC(C)(C)c1cc(Oc2ccc(C#N)c(C#N)c2)cc(C(C)(C)C)c1 | 90.2 µM (inactive) |
| CCSc1n/c(=C\c2ccco2)c2nnnn12 | > 100 µM (inactive) |
| CN(C)CCNC1=C(Cl)C(=O)c2c(O)ccc(O)c2C1=O | 2.08 µM (inactive) |
| O=[N+]([O-])c1ccc(NN=C2c3ccccc3Cc3ccccc32)c([N+](=O)[O-])c1 | 10.9 µM (inactive) |
| CN(C)CCNC(=O)c1cccc2nc3c(ccc4ccccc43)nc12 | 2.91 µM (inactive) |
| Cc1c2ccccc2nc2[nH]c3ccncc3c12 | 16.3 µM (inactive) |
| CCOC(=O)c1cnccc1CC1(C#N)c2ccccc2C=CN1C(=O)c1ccccc1 (stereo unspecified) | 29.7 µM (inactive) |
| CC(=O)OC1CC(O)CC2=CCC3C4CCC(C(C)(O)C(O)CC5COC(=O)C5C)C4(C)CCC3C21C (stereo unspecified) | > 25 µM (inactive) |
| CCc1c[n+]2c(cc1C1=CN3c4ccccc4[C@]45CCN6C/C(=C/CO)[C@H](C[C@H]64)[C@@H]([C@@H]1O)[C@H]35)-c1[nH]c3ccccc3c1CC2 | > 50 µM (inactive) |
| CCOC(=O)c1c(N)sc2c1CC(C)CC2 (stereo unspecified) | 23.4 µM (inactive) |
| COc1ccc(C2=C(N)c3ncccc3C2=O)cc1 | > 100 µM (inactive) |
| CN(C)CC1CC/C(=C\c2ccc(Cl)c(Cl)c2)C1=O (stereo unspecified) | 11.7 µM (inactive) |
| CC(C)=CC1C[C@H](C2CC=C3C2(C)CCC2[C@@]3(C)C(=O)CC3[C@]2(C)C=CC(=O)[C@]3(C)CO)CO1 (stereo partly specified) | 5.96 µM (inactive) |
| COc1cc(C2c3[nH]c4ccc(F)cc4c3C[C@H]3COC(=O)N23)cc(OC)c1O (stereo partly specified) | 11.6 µM (inactive) |
| CC(C)(C)n1nc(C2CC2)cc1NC(=O)Nc1ccc(Cl)cc1 | > 100 µM (inactive) |
| CC(C)(CCC(C)(C)c1ccccc1)c1ccccc1 | 15.7 µM (inactive) |
| CCN(CC)CCCC(C)Nc1ccnc2ccc3nn(C)nc3c12 (stereo unspecified) | 37.3 µM (inactive) |
| O=C1c2ccccc2S(=O)(=O)c2cc(-c3nn[nH]n3)ccc21 [DOXANTRAZOLE] | > 100 µM (inactive) |
| NC(=O)c1ncn(C2OC(CO)C(O)C2O)c1NC(=S)NC(=O)c1ccccc1 (stereo unspecified) | > 100 µM (inactive) |
| C[C@@H](NC1CCC[C@H]1O)c1ccccc1 (stereo partly specified) | > 100 µM (inactive) |
| N=c1oc2ccccc2cc1-c1nc2ccccc2c(=O)[nH]1 | 31.4 µM (inactive) |
| COC(=O)/C(=C\c1ccc(N(CCC#N)CCC#N)cc1)NC(=O)c1cc([N+](=O)[O-])ccc1Cl | > 100 µM (inactive) |
| C[C@@H]1[C@@H](c2ccccc2)O[B-](c2ccccc2)(c2ccccc2)N1C | 65.8 µM (inactive) |
| CN(C)CCCn1c(Cn2nc3ccccc3n2)nc2cc(C(F)(F)F)ccc21 | 19.3 µM (inactive) |
| O=C(Nc1ccn(C2CC(O)C(CO)O2)c(=O)n1)c1ccccc1 (stereo unspecified) | > 100 µM (inactive) |
| CCN(CC)CCN(C)c1ccc(CO)c2c1c(=O)c1ccccc1[s+]2[O-] (stereo unspecified) | 1.71 µM (inactive) |
| CC1NOC(=O)C1/N=N/c1ccc(Cl)cc1Cl (stereo unspecified) | 18.7 µM (inactive) |
| COC1/C=C/OC2(C)Oc3c(C)c(O)c4c(c3C2=O)C(=O)C=C(NC(=O)/C(C)=C\C=C\C(C)C(OC=O)C(C)C(O)C(C)C(OC(C)=O)C1C)C4=O (stereo unspecified) | 8.24 µM (inactive) |
| C=CCC1=C(C)C[C@@H]2CCC(=O)C=C12 | > 100 µM (inactive) |
| COCC(=O)OC1CCn2c1nc1c2C(=O)C(C)=C(NC(C)=O)C1=O (stereo unspecified) | 6.73 µM (inactive) |
| CCOc1ccc(NC(=O)/C(Cc2nc3ccccc3nc2O)=N\O)cc1 | > 100 µM (inactive) |
| CS(=O)(=O)Nc1ccc(Nc2ccnc3ccc4[nH]ccc4c23)cc1 | 9.64 µM (inactive) |
| CC(=O)NC1C(OCc2ccccc2)OC(CO)C(O)C1OCC(=O)N1CCCC1C(=O)N[C@@H](CCC(=O)NCCNCCNc1c2ccccc2nc2cccc([N+](=O)[O-])c12)C(N)=O (stereo partly specified) | 2.14 µM (inactive) |
| O=C1Nc2ccccc2N/C1=C\C(=O)c1ccccc1O | > 100 µM (inactive) |
| C=C1CN(C2=NCCO2)C1 | > 100 µM (inactive) |
| CCOc1ccc(NC(=O)C2=C(C)NC(C)=C(C(=O)Nc3ccc(OCC)cc3)C2c2ccc(O)c(OC)c2)cc1 | 48.9 µM (inactive) |
| Cc1c(Cl)cccc1NC(=O)C(=O)C1C(=O)CC(C)(C)CC1=O | > 100 µM (inactive) |
| COC(=O)c1ccc(OCc2ccc3oc(=O)c(-c4ccccc4)nc3c2)cc1 | 28.9 µM (inactive) |
| COc1cc(-c2oc3c(OC)c(O)cc(O)c3c(=O)c2OC)ccc1O | 16.9 µM (inactive) |
| CN(C)/C=C(\C(=O)c1ccccc1)n1nc(-c2ccccc2)cc1-c1ccccc1 | > 10 µM (inactive) |

---

# System: HL-60
# measurement description: NCI tumour cell line growth inhibition, 48 h
The source made the active and inactive calls. Rule as the data show it: active = GI50 up to about 1.1 µM and inactive = higher.
Classes used: active, inactive

| molecule | assigned category |
| --- | --- |
| COc1ncc(C#CC(=O)c2ccccc2OC)c(OC)n1 | active |
| Cc1c(Cl)cccc1NC(=O)C(=O)C1C(=O)CC(C)(C)CC1=O | inactive |
| C[C@@H]1CC[C@@]2(OC1)O[C@H]1[C@@H](O)[C@H]3[C@@H]4CC[C@H]5C[C@@H](O[C@@H]6O[C@H](CO)[C@H](O[C@@H]7O[C@H](CO)C(O)[C@H](O[C@@H]8OC[C@@H](O)[C@H](O)[C@H]8O)[C@H]7O[C@@H]7O[C@H](CO)[C@H](O)[C@H](O[C@@H]8O[C@H](CO)[C@@H](O)[C@H](O)[C@H]8O)[C@H]7O)[C@H](O)[C@H]6O)[C@H](O)C[C@]5(C)[C@H]4CC[C@]3(C)[C@H]1[C@@H]2C (stereo partly specified) | inactive |
| N#CCN(Cc1ccccc1)[C@@H]1CCC[C@]1(O)C#Cc1ccc2c(c1)OCO2 | inactive |
| CCCCOC(=O)C1CN2C=CC=NC2=NC1(C(F)(F)F)C(F)(F)F (stereo unspecified) | inactive |
| Cc1ccc2c(=O)c(-c3nnc(N)s3)c[nH]c2n1 | inactive |

---

Documented GI50 across a set of compounds
# Tested on: M14
# measurement description: NCI tumour cell line growth inhibition, 48 h
Calls of active or inactive are those of the source. Rule as the data show it: active = GI50 up to about 1.1 µM and inactive = higher.

| compound | GI50 |
| --- | --- |
| CCOC(=O)c1c(Br)c(-c2ccc(Br)cc2)c(Br)n1C | 18.8 µM (inactive) |
| CCOC(=O)C(NC(=O)c1ccccc1)(Nc1ccc(S(=O)(=O)Nc2cc(C)on2)cc1)C(F)(F)F (stereo unspecified) | > 100 µM (inactive) |
| O=C1C(Cl)N(c2c(Cl)cccc2Cl)C1c1c[nH]c2ccccc12 (stereo unspecified) | > 100 µM (inactive) |
| CC(=O)Nc1ccc(S(=O)(=O)N/N=C/CN2C(=O)c3ccccc3C2=O)cc1 | > 100 µM (inactive) |
| CC(=O)Nc1cccc(N2C(=O)/C(=C\c3cccc(Oc4ccccc4)c3)S(=O)(=O)C2c2ccccc2)c1 (stereo unspecified) | 90.6 µM (inactive) |
| Cc1c(-c2ccccc2)c(C#N)c2nnn(-c3ccc(Cl)cc3)c(=O)n12 | 5.08 µM (inactive) |
| Cc1nc(O)nc2nc3ccc(Cl)cc3c(NC(C)(CO)CO)c12 | > 100 µM (inactive) |
| N#CCN(Cc1ccccc1)[C@@H]1CCC[C@]1(O)C#Cc1ccc2c(c1)OCO2 | 16.8 µM (inactive) |
| O=C(NCCC(F)(F)C(F)(F)C(F)(F)C(F)(F)F)NC1OC(CO)C(O)C(O)C1O (stereo unspecified) | > 100 µM (inactive) |
| Nc1onc2c1Cc1c(noc1N)-c1ccccc1-2 | 84.3 µM (inactive) |
| COc1ccc(-c2cc(-c3ccccc3)c(C#N)c(=O)[nH]2)cc1 | > 100 µM (inactive) |
| COP(C)(=O)C(Cc1c[nH]c2ccccc12)NC(=O)OCc1ccccc1 (stereo unspecified) | > 100 µM (inactive) |
| COc1ccc2c(C=O)c3n(c(=O)c2c1OC)CCc1cc2c(cc1-3)OCO2 | 18.6 µM (inactive) |
| CC(=O)SC(SC(C)=O)SC(C)=O | > 100 µM (inactive) |
| N#C/C(=C\c1cc(Br)c(O)c(Br)c1)c1cccnc1 | 26.1 µM (inactive) |
| CNC(C#N)c1ccc(OC)cc1 (stereo unspecified) | > 100 µM (inactive) |
| O=C(CCc1ccc(O)c(O)c1)NCCc1cc(O)cc(OCc2ccccc2)c1 | 32.1 µM (inactive) |
| N=c1oc2ccc(Cl)cc2cc1C(N)=O | 27.5 µM (inactive) |
| Nc1nc(Cl)c2ncn(Cc3ccccc3CCl)c2n1 | 5.73 µM (inactive) |
| Cc1nc2c(=O)n(C)ncc2[nH]1 | > 100 µM (inactive) |
| NC(=O)c1ncn(C2OC(CO)C(O)C2O)c1NC(=S)NC(=O)c1ccccc1 (stereo unspecified) | > 100 µM (inactive) |
